Target: Recombinant IKKβ (Homo sapiens, UniProt O14920)
Construct: purchased Millipore, Dundee, UK
Sequence (O14920 1-756): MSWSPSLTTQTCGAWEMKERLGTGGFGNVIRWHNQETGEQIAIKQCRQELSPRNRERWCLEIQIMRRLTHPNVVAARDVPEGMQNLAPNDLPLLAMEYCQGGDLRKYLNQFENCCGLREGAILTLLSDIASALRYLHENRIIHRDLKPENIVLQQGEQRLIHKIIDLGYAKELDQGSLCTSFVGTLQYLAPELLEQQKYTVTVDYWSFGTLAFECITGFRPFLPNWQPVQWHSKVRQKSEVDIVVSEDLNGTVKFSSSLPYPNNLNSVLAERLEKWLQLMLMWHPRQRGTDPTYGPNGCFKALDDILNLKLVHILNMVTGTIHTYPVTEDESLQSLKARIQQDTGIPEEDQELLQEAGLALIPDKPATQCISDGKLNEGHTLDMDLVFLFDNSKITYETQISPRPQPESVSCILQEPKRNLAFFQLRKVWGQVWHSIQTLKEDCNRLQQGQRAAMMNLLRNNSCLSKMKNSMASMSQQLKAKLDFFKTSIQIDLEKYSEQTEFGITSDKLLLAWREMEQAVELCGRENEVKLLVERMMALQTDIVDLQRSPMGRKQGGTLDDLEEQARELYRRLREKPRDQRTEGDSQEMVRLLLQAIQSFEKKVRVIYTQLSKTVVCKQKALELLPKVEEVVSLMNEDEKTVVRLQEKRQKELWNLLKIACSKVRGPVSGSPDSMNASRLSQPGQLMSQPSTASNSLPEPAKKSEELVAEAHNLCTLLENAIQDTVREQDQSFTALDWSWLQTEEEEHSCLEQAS
Assay: DELFIA IKKβ kinase assay (apparent Ki, Cheng-Prusoff)
Format: biochemical
Conditions: DELFIA assay (first line of an example)
PROPERTY MEASURED: Ki (nM)

Some entries whose results are on file:
# MOL, PROPERTY MEASURED, UNIT STRING, ASSAY RESULT
records = [
    ("Nc1n[nH]c2c(C#CC3(O)CCCC3)cc(-c3ccnc4[nH]ccc34)cc12", "Ki", "nM", 1470),
    ("CN1CCN(Cc2cc3c(-c4ccc5[nH]nc(N)c5c4)ccnc3[nH]2)CC1", "Ki", "nM", 2430),
]

A: Cn1cc(Nc2cc(-c3cc(C#CC(C)(C)C)c4[nH]nc(N)c4c3)ccn2)cn1
B: COC(=O)Nc1cc(-c2cc(C#CC3CCOCC3)c3[nH]nc(N)c3c2)ccn1
In: I'm curious, which of these has a smaller Ki number: A or B ? # respond with the chosen item's label
Out: A
(A: 68 nM, B: 274 nM)

* * *

biological target: Recombinant IKKα (Homo sapiens); construct: purchased Millipore, Dundee, UK; assay: DELFIA IKKα kinase assay (apparent Ki, Cheng-Prusoff); format: biochemical; details: non-italicised figure: DELFIA assay
Sequence (O15111 whole entry): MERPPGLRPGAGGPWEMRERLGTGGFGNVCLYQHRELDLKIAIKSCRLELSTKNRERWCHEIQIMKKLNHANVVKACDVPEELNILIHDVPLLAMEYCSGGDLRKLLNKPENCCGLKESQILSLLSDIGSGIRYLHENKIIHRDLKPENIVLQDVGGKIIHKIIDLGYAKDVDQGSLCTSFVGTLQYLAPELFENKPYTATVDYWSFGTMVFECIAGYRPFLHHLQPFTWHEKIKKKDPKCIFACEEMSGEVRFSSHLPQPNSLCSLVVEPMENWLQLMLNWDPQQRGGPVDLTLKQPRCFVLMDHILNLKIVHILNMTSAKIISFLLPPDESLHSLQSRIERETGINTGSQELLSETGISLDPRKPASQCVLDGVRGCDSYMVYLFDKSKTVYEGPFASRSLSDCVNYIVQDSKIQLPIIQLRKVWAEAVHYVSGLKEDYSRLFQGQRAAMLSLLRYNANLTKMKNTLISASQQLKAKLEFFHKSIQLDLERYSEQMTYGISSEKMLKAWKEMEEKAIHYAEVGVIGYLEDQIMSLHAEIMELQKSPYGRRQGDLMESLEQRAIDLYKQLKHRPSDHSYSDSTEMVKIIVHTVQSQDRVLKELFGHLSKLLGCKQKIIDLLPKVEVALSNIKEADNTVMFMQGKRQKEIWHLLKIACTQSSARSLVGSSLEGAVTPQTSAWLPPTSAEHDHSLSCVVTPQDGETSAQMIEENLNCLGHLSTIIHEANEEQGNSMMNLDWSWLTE
pKi: −log10 of the molar value.
PROPERTY MEASURED: pKi

# COMPOUND, pKi
rows = [
    ("Nc1cc(-c2cc(-c3ccn[nH]3)c3[nH]nc(N)c3c2)ccn1 [Example 133]", 7.34),
    ("Nc1n[nH]c2ccc(-c3ccnc(NC(=O)Nc4cccc(Oc5ccccc5)c4)c3)cc12 [Example 56]", 6.63),
    ("CC(C)(C)OCC#Cc1c(-c2ccc3[nH]nc(N)c3c2)ccnc1N [Example 88]", 6.88),
    ("COCC(=O)Nc1cc(-c2cc(C#CC(C)(C)C)c3[nH]nc(N)c3c2)ccn1 [Example 175]", 7.62),
    ("Nc1n[nH]c2ccc(-c3ccnc(NCCO)c3)cc12 [Example 20]", 7.34),
]

a: Nc1nccc(-c2ccc3[nH]nc(N)c3c2)c1C#CC1CCCCC1 [Example 74]
b: CC(C)(C)C#Cc1cc(-c2cc(N)nc(F)c2)cc2c(N)n[nH]c12 [Example 150]
c: COCCNc1cc(-c2ccc3[nH]nc(N)c3c2)ccn1 [Example 25]
d: COC(=O)c1ccc(C#Cc2c(-c3ccc4[nH]nc(N)c4c3)ccnc2N)cc1 [Example 80]
In: Kindly order the items shown according to pKi, from the highest value down. List the labels, following the order given in the request.
Out: d, a, c, b
(d: 8.70, a: 7.92, c: 6.66, b: 6.24)

* * *

biological target: CHUK (IKK alpha) (Homo sapiens, UniProt O15111); construct: purchased Life Technologies (assay performed by the vendor); experiment: Adapta IKKα assay (TR-FRET ADP formation, Life Technologies); type: biochemical; settings: Adapta assay
pIC50: −log10 of the molar value.
PROPERTY MEASURED: pIC50

Some entries whose results are on file:
# MOLECULE, pIC50
rows = [
    ("Nc1cc(-c2cc(-c3ccccc3)c3[nH]nc(N)c3c2)ccn1 [Example 104]", 8.52),
    ("Nc1nccc(-c2ccc3[nH]nc(N)c3c2)c1C#CCCN1CCCCC1 [Example 93]", 8.15),
    ("Nc1nccc(-c2ccc3[nH]nc(N)c3c2)c1C#CCCO [Example 84]", 9.00),
]

1: Nc1nccc(-c2ccc3[nH]nc(N)c3c2)c1C#CCCCO [Example 85]
2: CC(C)(O)C#Cc1cc(-c2ccnc(N)c2)cc2c(N)n[nH]c12 [Example 140]
In: I'm curious, which of these has a smaller pIC50 number: 1 or 2 ? # respond with the chosen item's label
Out: 2

a: Nc1nccc(-c2ccc3[nH]nc(N)c3c2)c1C#Cc1ccccc1 [Example 75]
b: CC(C)(N)C#Cc1c(-c2ccc3[nH]nc(N)c3c2)ccnc1N [Example 92]
In: I'm curious, which of these has a smaller pIC50 number: a or b ? # respond with the chosen item's label
Out: b
(b: 8.22, a: 9.00)

1: CC(C)(O)C#Cc1c(-c2ccc3[nH]nc(N)c3c2)ccnc1N [Example 87]
2: CC(C)(C)OCC#Cc1c(-c2ccc3[nH]nc(N)c3c2)ccnc1N [Example 88]
In: I'm curious, which of these has a smaller pIC50 number: 1 or 2 ? # respond with the chosen item's label
Out: 2

* * *

Biological target: Recombinant IKKα (Homo sapiens)
Construct: purchased Millipore, Dundee, UK
Experiment: DELFIA IKKα kinase assay (apparent Ki, Cheng-Prusoff)
Type: biochemical
Settings: non-italicised figure: DELFIA assay
Experimental: IKKα and IKKβ inhibitory activity was determined using three different assays: a dissociation enhanced ligand fluorescent immunoassay (DELFIA) based on the protocol of HTScan™ IKKβ Kinase Assay (Cell Signaling Technology, USA); an Adapta IKKα assay (performed by Life Technologies); a Z′-LYTE™ IKKβ assay (performed by Life Technologies). […]
PROPERTY MEASURED: Ki (nM)

Some entries whose results are on file:
# MOL, Ki, nM
records = [
    ("Nc1n[nH]c2ccc(-c3ccnc(NCCN4CCOCC4)c3)cc12", 340),
    ("CN(C)c1ccc(-c2cc(-c3ccnc(N)c3)cc3c(N)n[nH]c23)cc1", 84),
    ("COC(=O)c1cccc(C#Cc2c(-c3ccc4[nH]nc(N)c4c3)ccnc2N)c1", 17),
    ("COC(=O)Nc1cc(-c2cc(C#CCN3CCOCC3)c3[nH]nc(N)c3c2)ccn1", 47),
    ("Nc1nccc(-c2ccc3[nH]nc(N)c3c2)c1C#CCCCO", 4),
]

A: CC(C)CCNC(=O)Nc1cc(-c2ccc3[nH]nc(N)c3c2)ccn1
B: CNC(=O)Nc1cc(-c2cc(C#CC(C)(C)C)c3[nH]nc(N)c3c2)ccn1
C: CCc1ccccc1NC(=O)Nc1cc(-c2ccc3[nH]nc(N)c3c2)ccn1
In: Kindly order the items shown according to Ki, from the highest value down. List the labels, following the order given in the request.
Out: C, A, B

* * *

molecular target: IKBKB (IKKβ) (Homo sapiens, UniProt O14920); construct: purchased Life Technologies (assay performed by the vendor); experiment: Z'-LYTE IKKβ assay (Life Technologies); type: biochemical; conditions: Life Technologies assay
PROPERTY MEASURED: IC50 (nM)

# MOLECULE, UNIT STRING, IC50
measured = [
    ("CC(C)(N)C#Cc1c(-c2ccc3[nH]nc(N)c3c2)ccnc1N [Example 92]", "nM", 87),
    ("Nc1nccc(-c2ccc3[nH]nc(N)c3c2)c1C#CCCCN1CCCCC1 [Example 95]", "nM", 545),
    ("CC(C)(C)C#Cc1c(-c2ccc3[nH]nc(N)c3c2)ccnc1N [Example 72]", "nM", 65),
    ("Nc1nccc(-c2ccc3[nH]nc(N)c3c2)c1C#CCCO [Example 84]", "nM", 53),
]

a: CC(C)(C)OCC#Cc1c(-c2ccc3[nH]nc(N)c3c2)ccnc1N [Example 88]
b: CC(C)(O)C#Cc1cc(-c2ccnc(N)c2)cc2c(N)n[nH]c12 [Example 140]
c: Nc1cc(-c2cc(-c3ccccc3)c3[nH]nc(N)c3c2)ccn1 [Example 104]
In: Kindly order the items shown according to IC50, from the highest value down. List the labels, following the order given in the request.
Out: b, a, c

1: Nc1nccc(-c2ccc3[nH]nc(N)c3c2)c1C#CCCCO [Example 85]
2: Nc1nccc(-c2ccc3[nH]nc(N)c3c2)c1C#CCO [Example 83]
In: Of 1 and 2 , which one carries the higher reported IC50? # respond with the chosen item's label
Out: 2

The measured values listed here are drawn from patent US20250304576A1.
